- TARGET_ENTITY: human motilin receptor (GPR38) (Homo sapiens, UniProt O43193)
- Construct: expressed in transfected cells; host or cells: CHO-K1
- Sequence (O43193 whole entry): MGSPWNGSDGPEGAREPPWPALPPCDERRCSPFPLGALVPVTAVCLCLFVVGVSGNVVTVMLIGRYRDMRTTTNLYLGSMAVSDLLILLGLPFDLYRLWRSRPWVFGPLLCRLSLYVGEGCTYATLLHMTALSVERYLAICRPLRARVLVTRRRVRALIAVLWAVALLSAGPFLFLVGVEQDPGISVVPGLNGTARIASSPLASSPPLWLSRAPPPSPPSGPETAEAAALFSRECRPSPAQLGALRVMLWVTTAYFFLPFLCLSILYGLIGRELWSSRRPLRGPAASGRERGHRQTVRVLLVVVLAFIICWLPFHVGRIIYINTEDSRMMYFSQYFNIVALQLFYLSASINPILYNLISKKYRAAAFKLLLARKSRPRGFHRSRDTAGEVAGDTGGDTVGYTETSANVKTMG
- EXPERIMENT_SUMMARY: GPR38 (Motilin Receptor) Functional Assay, NFAT-beta-lactamase reporter in CHO-K1 cells
- Type: cell-based
- TEST_PARAMETERS: ED50 (nM), Table 15; functional activity toward GPR38 (motilin receptor), (S) versus (R) amino acid linker
Overview of reported EC50 across a group of compounds:
RESULT_TYPE: EC50 (nM)

chem_smiles=CN[C@H]1CCN(C(=O)N[C@H](CCc2ccccc2)C(=O)N2CCC(N3C(=O)C(C)(C)c4ccccc43)CC2)C1 units=nM reported=488
chem_smiles=CN[C@H]1CCN(C(=O)N[C@@H](CCc2ccccc2)C(=O)N2CCC(N3C(=O)C(C)(C)c4ccccc43)CC2)C1 units=nM reported=0.98
chem_smiles=CC1(C)C(=O)N(C2CCN(C(=O)[C@H](CCc3ccccc3)NC(=O)[C@@H]3CCCNC3)CC2)c2ccccc21 units=nM reported=0.24
chem_smiles=CC1(C)C(=O)N(C2CCN(C(=O)[C@@H](CCc3ccccc3)NC(=O)[C@@H]3CCCNC3)CC2)c2ccccc21 units=nM reported=6210
